Biological target: T1, hIL-6R-hFc (human, UniProt P08887 20-358)
T1 construct: also called dimeric hIL-6R; Dimer; not shown: human Fc (hFc)
T1 sequence: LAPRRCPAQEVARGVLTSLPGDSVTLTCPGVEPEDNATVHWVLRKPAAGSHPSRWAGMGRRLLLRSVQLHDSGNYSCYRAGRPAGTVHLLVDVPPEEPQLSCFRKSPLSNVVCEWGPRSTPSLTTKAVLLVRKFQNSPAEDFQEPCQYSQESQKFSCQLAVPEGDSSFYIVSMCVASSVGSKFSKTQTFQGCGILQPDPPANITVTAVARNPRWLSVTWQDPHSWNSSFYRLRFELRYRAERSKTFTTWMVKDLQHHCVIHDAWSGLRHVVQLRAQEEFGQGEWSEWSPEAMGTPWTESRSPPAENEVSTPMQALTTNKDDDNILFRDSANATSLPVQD
Experiment: competition ELISA: antibody premixed with serial dilutions of hIL-6R-hFc, free antibody detected on hIL-6R-hFc-coated plate
attributeMeasured: pIC50
API: returns pIC50 as number; meaning -log10 of concentration in mol/L.

Consider the reported pIC50 for these binders:
248982-13-2-A9 (antibody, V domains shown) VH: QVQLVQSGGGLVQPGRSLRLSCAASGFTFDDYAMHWVRQAPGKGLEWVSGISWNSGRVGYADSVKGRFTISRDNAKNSLYLQMNSLRAEDTALYYCTKGRDAFDIWGQGTMVTVSS VL: DIVMTQSPSSVSASVGDRVTITCRASQGISSWLAWYQQKPGKAPKLLIYAASSLQSGVPSRFSGSGSGTDFTLTISSLQPEDFATYYCQQANSFPYTFGQGTKLEIK : 10.27
VV3D8-4 (antibody, V domains shown, Human variable regions with mouse constant region) VH: EVQLVESGGGLVQPGRSLRLSCAASGFTFDDYALHWVRQAPGKGLEWVSGISWNSGRIGYADSVKGRFTISRDNAKNSLFLQMNSLRAEDTALYYCAKGRDAFDIWGQGTLVTVSS VL: DIQMTQSPSSVSASVGDRVTITCRASQGISSWLAWYQQKPGKAPKLLIYAASSLQSGVPSRFSGSGSGTDFTLTISSLQPEDFATYYCQQANSFPYTFGQGTKLEIK : 10.89
VV6F12-11 (antibody, V domains shown, Human variable regions with mouse constant region) VH: QVQLVQSGAEVKEPGASVKISCKASGYTFTSYDIIWVRQATGQGLEWMGWMNPNSGDRGYTQNLQGRVTLTRDTSISTVYMELSSLRSEDTAVYYCARDYSNHYYGLDVWGQGTTVTVSS VL: DIQLTQSPSFLSASVGDRVTITCWASQDISNYLAWYQQKPGKAPKLLIFVASTLQSGVPSRFSGSGSGTEFTLTISSLQPEDFATYYCQQFNSYPLTFGGGTKVEIR : 10.48
VV1G4-7 (antibody, IgG2a, V domains shown, Human variable regions with mouse constant region) VH: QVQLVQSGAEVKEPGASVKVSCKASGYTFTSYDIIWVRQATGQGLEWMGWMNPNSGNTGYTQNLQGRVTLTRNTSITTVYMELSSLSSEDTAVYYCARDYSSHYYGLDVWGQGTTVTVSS VL: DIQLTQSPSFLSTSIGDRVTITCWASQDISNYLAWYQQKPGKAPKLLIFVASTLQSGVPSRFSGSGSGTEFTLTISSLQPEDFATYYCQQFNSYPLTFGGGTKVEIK : 10.39
VV7G4-10 (antibody, V domains shown, Human variable regions with mouse constant region) VH: QVQLVQSGAEVKKPGASVKVSCKASGYTFTSYGISWVRQAPGQGLEWMGWISAYNDDTNYAQKFQGRVTMTTDTSTSTAYMELRSLRSDDTAVYYCAREAQLVLYYYYGMDVWGQGTTVTVSS VL: EIVLTQSPATLSLSPGERATLSCRASQSVSSFLAWNQQKPGQAPRLLIYDASNRATGIPARFSGSGSGTDFTLTISSLEPEDFAVYYCQQRSNWPYIFGQGTKLEIK : 8.70

Reported pIC50 ( VV6A9-5 (antibody, V domains shown, Human variable regions with mouse constant region; also called VV6A9-5 mIgG2a) VH: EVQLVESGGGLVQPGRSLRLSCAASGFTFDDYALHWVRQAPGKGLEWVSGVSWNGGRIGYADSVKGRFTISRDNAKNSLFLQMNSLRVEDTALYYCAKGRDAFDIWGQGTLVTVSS VL: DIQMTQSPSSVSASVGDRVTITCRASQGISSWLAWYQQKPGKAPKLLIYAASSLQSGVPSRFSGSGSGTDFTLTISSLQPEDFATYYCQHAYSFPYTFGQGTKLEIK ) = 11.30

Looking up VV9A6-11 (antibody, V domains shown, Human variable regions with mouse constant region) VH: QVQLVQSGAEVKKPGASVKVSCKASGYTFTSYGISWVRQAPGQGLEWMGWISAYNDDTNYAQKFQGRVTMTTDTSTSTAYMELRSLRSDDTAVYYCAREAQLVLYYYYGMDVWGQGTTVTVSS VL: EIVLTQSPATLSLSPGERATLSCRASQSVSSFLAWNQQKPGQAPRLLIYDASNRATGIPARFSGSGSGTDFTLTISSLEPEDFAVYYCQQRSNWPYIFGQGTKLEIK , I see its pIC50 listed as 9.46
